Across several studies, molecules have been characterized by their IC50 on Receptor tyrosine-protein kinase erbB-2 (Homo sapiens); a selection follows.

{"MOLECULE": "CS(=O)(=O)c1cccc(Nc2nccc(-c3sc(N4CCOCC4)nc3-c3cccc(NS(=O)(=O)c4c(F)cccc4F)c3F)n2)c1", "OBSERVED RESULT": "0.1 to 1 µM"}
{"MOLECULE": "COc1cc(Nc2ncnc(-n3c(NCc4ccccn4)nc4ccccc43)n2)cc(OC)c1OCCN1CCOCC1", "OBSERVED RESULT": "> 7.71 µM"}
{"MOLECULE": "c1ccc(-c2cc(Nc3ncnc(Nc4cccc(-c5cnco5)c4)n3)[nH]n2)cc1", "OBSERVED RESULT": "1.01 to 6.05 µM"}

State the recorded IC50 for this entry: "COc1cc(C2CCN(CCS(C)(=O)=O)CC2)c(C)cc1Nc1nccc(-c2sc(C(C)C)nc2-c2cccc(NS(=O)(=O)c3c(F)cccc3F)c2)n1"
> 1 µM

Check COc1cc(Nc2ncnc(NC3CCc4ccccc43)n2)cc(OC)c1OC (stereo not drawn) too.
> 11.4 µM

Check "CN(C)C/C=C/C(=O)N1CCOc2c1ccc1ncnc(Nc3ccc(OCc4ccccc4F)cc3)c21" too.
≤ 0.05 µM

Check "CCNc1ncnc(Nc2ccc3c(cnn3Cc3cccc(F)c3)c2)c1/C=N/OCC" too.
3.6 µM

---

Across several studies, molecules have been characterized by their IC50 on Receptor tyrosine-protein kinase erbB-2 (Homo sapiens, UniProt P04626); a selection follows.

Solved cases (7 shown):
{"GIVEN SMILES": "CN1CCN(c2ccc(Nc3nccc(-c4c[nH]nc4-c4ccc(Cl)cc4)n3)cc2)CC1", "EXPERIMENTAL ENDPOINT": "IC50", "OBSERVED RESULT": "0.023 µM"}
{"GIVEN SMILES": "CCN(CC)c1ccc(Nc2ncnc(N3CCCc4cc(C)ccc43)n2)cc1", "EXPERIMENTAL ENDPOINT": "IC50", "OBSERVED RESULT": "> 11.6 µM"}
{"GIVEN SMILES": "Fc1ccc(Nc2ncnc3ccc(-c4ccc(CNCCC5=CCCCC5)o4)cc23)cc1Cl", "EXPERIMENTAL ENDPOINT": "IC50", "OBSERVED RESULT": "< 10 µM"}
{"GIVEN SMILES": "COc1cc(Nc2ncnc(-n3c(NCc4ccc(Cl)cc4C)nc4ccccc43)n2)cc(OC)c1OC", "EXPERIMENTAL ENDPOINT": "IC50", "OBSERVED RESULT": "0.752 to 4.51 µM"}
{"GIVEN SMILES": "N#Cc1cnc2sc(C(=O)Nc3ccc(CN4CCC(F)(F)CC4)cc3)c3c2c1N(c1c(Cl)ccc2c1OCO2)C(=O)N3", "EXPERIMENTAL ENDPOINT": "IC50", "OBSERVED RESULT": "3.37 µM"}
{"GIVEN SMILES": "Cc1ccc2c(c1)CCCN2c1ncnc(Nc2cc[nH]n2)n1", "EXPERIMENTAL ENDPOINT": "IC50", "OBSERVED RESULT": "1.3 to 7.81 µM"}
{"GIVEN SMILES": "COc1cc(Nc2ncnc(Nc3ccccc3)n2)cc(OC)c1OC", "EXPERIMENTAL ENDPOINT": "IC50", "OBSERVED RESULT": "1.13 to 6.79 µM"}

// moving on: another record for IC50
# returns recorded IC50 (system: Receptor tyrosine-protein kinase erbB-2 (Homo sapiens, UniProt P04626)) for "CC#CC(=O)N1CCOc2c1ccc1ncnc(Nc3ccc(OCc4ccccn4)c(Cl)c3)c21"
≤ 0.05 µM
